assay.protocol: Concentration required to achieve 50% protection of MT-4 cell from the HIV-1 induced cytopathogenicity was determined by the MTT method
pEC50: −log10 of the molar value.
We use 5 as the dividing line for pEC50: on or above the line is label 1, below is label 0.

Known results for compounds:
[
  {
    "compound": "O=C1c2ccccc2C(=O)N1CCOC(=S)N(C(=O)c1cccs1)c1cccc([N+](=O)[O-])c1",
    "group.label": "label 1"
  },
  {
    "compound": "O=C1c2ccccc2C(=O)N1CCOC(=S)N(C(=O)c1ccccc1)c1ccccc1",
    "group.label": "label 1"
  },
  {
    "compound": "O=C(c1ccccc1)N(C(=S)OCc1ccco1)c1ccccc1",
    "group.label": "label 0"
  },
  {
    "compound": "O=C1c2ccccc2C(=O)N1CCOC(=S)N(C(=O)c1ccco1)c1ccc([N+](=O)[O-])cc1",
    "group.label": "label 1"
  }
]

Pending compound:
// query Does pEC50 meet or surpass 5 for CCCCOC(=O)N(C(=S)OC(C)COc1ccccc1)c1ccccc1 (stereo not given) ?
// result label 0
